Attribution: the supplement of paper PMC10567573

B1: KRT34 (parent)
chain: PTVDLNQVLNETRSQYEALVETNR

- Variants of: B1
- testDetails: protein stability index of a GFP-peptide fusion (GPS, HEK-293T) (PSI 1-6); higher = more stable;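 further: lentivirally expressed fusions sorted by FACS into six bins by GFP to DsRed ratio, PSI derived from sequencing read proportions per bin multiplied by bin number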
- conditionParameters: c terminus: a fixed tail appended
I would appreciate it if you labelled entries T when protein stability index is 4 or higher, otherwise F.

seqText: PTVDLNQVLRETRSQYEALVETNR [N10R]
labelValue: F

seqText: PTVDLNQVLNETESQYEALVETNR [R13E]
labelValue: T

In: In plain terms: is recorded protein stability index at least 4 for PTVDSNQVLNETRSQYEALVETNR [L5S] ?
Out: T

In: Okay, and PTVDLNQVLNETRSQYEHLVETNR [A18H] ?
Out: T

In: Okay, and PTVDLNQVLNETRSQYEALVETNY [R24Y] ?
Out: F

In: Okay, and PTVDLNQVTNETRSQYEALVETNR [L9T] ?
Out: T

In: Okay, and PTVDLNQVLFETRSQYEALVETNR [N10F] ?
Out: F

In: Okay, and PTVDLNQVLNETRSQYPALVETNR [E17P] ?
Out: F
